target-or-test-system: protein kinase C
procedure-text: enzyme assay of protein kinase C
condition-label: read-out: 50% inhibition at a concentration of, enzyme assay of protein kinase C
pIC50: −log10 of the molar value.
quantity-name: pIC50

test-smiles: Cn1cc(C2=C(c3c[nH]c4ccccc34)C(=O)NC2=O)c2ccccc21
value-reported: 6.85

* * *

Sequence of the target: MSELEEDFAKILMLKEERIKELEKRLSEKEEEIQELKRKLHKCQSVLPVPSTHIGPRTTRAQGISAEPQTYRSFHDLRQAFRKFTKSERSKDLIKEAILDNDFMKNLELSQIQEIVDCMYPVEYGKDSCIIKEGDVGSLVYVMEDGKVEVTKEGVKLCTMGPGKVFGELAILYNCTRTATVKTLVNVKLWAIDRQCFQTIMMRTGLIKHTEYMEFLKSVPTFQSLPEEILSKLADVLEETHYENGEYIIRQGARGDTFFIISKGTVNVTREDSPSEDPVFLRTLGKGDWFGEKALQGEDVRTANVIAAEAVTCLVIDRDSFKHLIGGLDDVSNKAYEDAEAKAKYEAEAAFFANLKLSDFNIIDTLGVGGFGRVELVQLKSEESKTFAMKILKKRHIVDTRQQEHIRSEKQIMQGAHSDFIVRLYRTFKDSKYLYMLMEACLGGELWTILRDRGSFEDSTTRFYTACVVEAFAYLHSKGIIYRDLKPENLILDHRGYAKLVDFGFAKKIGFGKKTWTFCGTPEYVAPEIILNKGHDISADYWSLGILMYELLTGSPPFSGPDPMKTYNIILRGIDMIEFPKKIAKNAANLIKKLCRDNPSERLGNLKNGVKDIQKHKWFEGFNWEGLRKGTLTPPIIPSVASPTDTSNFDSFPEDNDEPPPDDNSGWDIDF

test-smiles: Cn1cc(C2=C(c3c[nH]c4ccccc34)C(=O)NC2=O)c2ccccc21
IC50 [µM]: 15
